Numbers sourced from paper PMC12820563.

# Measured Target: MBP-FoxP1dN (Mus musculus, UniProt P58462 326-579)
# Sequence: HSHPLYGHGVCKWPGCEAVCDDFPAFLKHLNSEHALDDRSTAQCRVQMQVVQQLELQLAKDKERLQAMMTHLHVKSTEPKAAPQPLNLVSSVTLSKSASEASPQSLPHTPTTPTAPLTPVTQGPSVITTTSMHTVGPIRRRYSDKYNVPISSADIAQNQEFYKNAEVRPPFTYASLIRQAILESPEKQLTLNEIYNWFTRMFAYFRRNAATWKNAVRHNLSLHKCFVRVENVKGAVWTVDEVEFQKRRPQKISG
# Protocol Summary: PD-seq (MBP pull-down with sequencing); 20 mM Tris-HCl pH 7.5, 100 mM NaCl, 1.5 mM MgCl2, 0.4 uM protein, 0.1 uM dsDNA library, 30 min, room temperature, amylose pull-down; high values mean tight binding
# Run Parameters: protein: recombinant; tags: His6-MBP; chain copies: 2; dsDNA, one strand shown
The full ranking holds about 16,000 sequences; the median of “rpm ratio (pull-down/input)” is about 0.94, and the highest 2% start at about 1.7. For the sample, the highest values were picked, then their nearest neighbours and some sequences at random.
Entries and their binding signal values follow.

// below: answered sequences
>>> df
                              sequence_code  measurement_type                             value
0  GATGATTGTTCTCCCAGCTGATGAATTTGTGTCGTCGAGTAAACAAATTTTCCTAATCTTTCTGTTCAAGCGCCATCTAC    binding signal  1.23 RPM ratio (pull-down/input)
1  GATGATTGTTCTCCCAGCTGATGAATTATCAAAATCGAGTAAACAAATTTTCCTAATCTTTCTGTTCAAGCGCCATCTAC    binding signal  1.22 RPM ratio (pull-down/input)

Query string: For the sequence GATGATTGTTCTCCCAGCTGATGAATTACTTTGCTCGAGTAAACAAATTTTCCTAATCTTTCTGTTCAAGCGCCATCTAC , what binding signal is on record?
Result string: 1.02 RPM ratio (pull-down/input)

Query string: Could you share which binding signal value was measured for GATGATTGTTCTCCCAGCTGATGAATTGTGTTCTTCGAGTAAACAAATTTTCCTAATCTTTCTGTTCAAGCGCCATCTAC ?
Result string: 1.33 RPM ratio (pull-down/input)

Query string: # get_value(readout='binding signal', item= GATGATTGTTCTCCCAGCTGATGAATTTAACTATTCGAGTAAACAAATTTTCCTAATCTTTCTGTTCAAGCGCCATCTAC )
Result string: 0.876 RPM ratio (pull-down/input)

Query string: Need binding signal of GATGATTGTTCTCCCAGCTGATGAATTCAGATTATCGAGTAAACAAATTTTCCTAATCTTTCTGTTCAAGCGCCATCTAC , thanks.
Result string: 0.977 RPM ratio (pull-down/input)

Query string: // lookup binding signal for GATGATTGTTCTCCCAGCTGATGAATTGTTGTGTTCGAGTAAACAAATTTTCCTAATCTTTCTGTTCAAGCGCCATCTAC
Result string: 2.57 RPM ratio (pull-down/input)

Query string: Entry GATGATTGTTCTCCCAGCTGATGAATTATGGCAATCGAGTAAACAAATTTTCCTAATCTTTCTGTTCAAGCGCCATCTAC has what binding signal?
Result string: 1.23 RPM ratio (pull-down/input)

Query string: What measured binding signal goes with GATGATTGTTCTCCCAGCTGATGAATTTGTGTTGTCGAGTAAACAAATTTTCCTAATCTTTCTGTTCAAGCGCCATCTAC ?
Result string: 2.64 RPM ratio (pull-down/input)
